molecular target: KRAS G13D (Homo sapiens, UniProt P01116+P62937, G13D); assay: Disruption of BRAF RBD interaction with Ras (FRET / MOA assay, with Cyclophilin A); format: biochemical; settings: KRAS G13D; read-out: KRAS G13D FRET data IC50
Sequence (P01116 1-169 isoform P01116-2 G13D limits assumed, one chain of several): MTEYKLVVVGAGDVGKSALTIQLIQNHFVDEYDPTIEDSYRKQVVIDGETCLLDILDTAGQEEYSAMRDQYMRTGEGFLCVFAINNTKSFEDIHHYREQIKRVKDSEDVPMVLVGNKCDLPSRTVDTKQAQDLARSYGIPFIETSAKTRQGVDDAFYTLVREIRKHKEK
quantity name: IC50

Record excerpt, results attached:
CCn1c(-c2cccnc2[C@H](C)OC)c2c3cc(ccc31)-c1csc(n1)C[C@H](NC(=O)[C@H](C(C)C)N(C)C(=O)N1CCN3CCOC[C@H]3C1)C(=O)N1CCC[C@H](N1)C(=O)OCC(C)(C)C2: 1000 to 10000 nM
C=CC(=O)N1CCO[C@H]2CN(C(=O)N(C)[C@H](C(=O)N[C@H]3Cc4cccc(n4)-c4ccc5c(c4)c(c(-c4cccnc4[C@H](C)OC)n5CC(F)(F)F)CC(C)(C)COC(=O)C4CCCN(N4)C3=O)C(C)C)C[C@H]21 (stereo partly shown): 1000 to 10000 nM
C=CC(=O)N1CCOC2(CCN(C(=O)N(C)[C@H](C(=O)N[C@H]3Cc4cccc(c4)-c4ccc5c(c4)c(c(-c4cccnc4[C@H](C)OC)n5CC(F)(F)F)CC(C)(C)COC(=O)C4CCCN(N4)C3=O)C(C)C)CC2)C1 (stereo partly shown): 100 to 1000 nM

Now look at this one.
Task item: Kindly indicate its recorded IC50. Item: CCn1c(-c2cccnc2[C@H](C)OC)c2c3cc(ccc31)-c1csc(n1)C[C@H](NC(=O)[C@H](C(C)C)N(C)C(=O)N(C)C1(COC)COC1)C(=O)N1CCC[C@H](N1)C(=O)OCC(C)(C)C2
Reply: 1000 to 10000 nM

---

biological target: KRAS G13D (Homo sapiens, UniProt P01116+P62937, G13D); assay: Disruption of BRAF RBD interaction with Ras (FRET / MOA assay, with Cyclophilin A); type: biochemical; conditions: KRAS G13D; read-out: KRAS G13D FRET data IC50
pIC50: −log10 of the molar value.
quantity name: pIC50

Task item: Give reported pIC50 for CCn1c(-c2cccnc2[C@H](C)OC)c2c3cc(ccc31)-c1csc(n1)C[C@H](NC(=O)[C@H](C(C)C)N(C)C(=O)N1CC(N(C)C)C1)C(=O)N1CCC[C@H](N1)C(=O)OCC(C)(C)C2 (racemic) [Example A170] (KRAS G13D (Homo sapiens, UniProt P01116+P62937, G13D))
Reply: 6.00 to 7.00

Task item: Give reported pIC50 for C=CC(=O)N1CC[C@H](C(=O)N(C)[C@H](C(=O)N[C@H]2Cc3cc(O)cc(c3)-c3ccc4c(c3)c(c(-c3ccnc5c3[C@@H](OC)CC5)n4CC)CC(C)(C)COC(=O)[C@@H]3CCCN(N3)C2=O)C(C)C)C1 [Example A275] (KRAS G13D (Homo sapiens, UniProt P01116+P62937, G13D))
Reply: 6.00 to 7.00

---

molecular target: KRAS G13D (Homo sapiens, UniProt P01116+P62937, G13D); experiment: Disruption of BRAF RBD interaction with Ras (FRET / MOA assay, with Cyclophilin A); type: biochemical; conditions: KRAS G13D; read-out: KRAS G13D FRET data IC50
quantity name: IC50

Record excerpt, results attached:
CCn1c(-c2cnccc2COC)c2c3cc(ccc31)-c1cc(O)cc(c1)C[C@H](NC(=O)[C@H](C(C)C)N(C)C(=O)OC1CNC1)C(=O)N1CCC[C@H](N1)C(=O)OCC(C)(C)C2: 0.1 to 1 µM
CCn1c(-c2cccnc2[C@H](C)OC)c2c3cc(ccc31)-c1csc(n1)C[C@H](NC(=O)[C@H](C(C)C)N(C)C(=O)N(C)C(C)C)C(=O)N1CCC[C@H](N1)C(=O)OCC(C)(C)C2: 0.1 to 1 µM

Task item: Kindly indicate its recorded IC50. Item: CCn1c(-c2cccnc2[C@H](C)OC)c2c3cc(ccc31)-c1cc(O)cc(c1)C[C@H](NC(=O)[C@H](C(C)C)N(C)C(=O)C13CNCC1C3)C(=O)N1CCC[C@H](N1)C(=O)OCC(C)(C)C2 (stereo partly drawn)
Reply: 0.01 to 0.1 µM

---

# IC50 listing for each entry below
molecular target: KRAS G12D (Homo sapiens, UniProt P01116+P62937, G12D); assay: Disruption of BRAF RBD interaction with Ras (FRET / MOA assay, with Cyclophilin A); type: biochemical; conditions: read-out: KRAS G12D FRET data, IC50
Sequence (P01116 1-169 isoform P01116-2 G12D limits assumed): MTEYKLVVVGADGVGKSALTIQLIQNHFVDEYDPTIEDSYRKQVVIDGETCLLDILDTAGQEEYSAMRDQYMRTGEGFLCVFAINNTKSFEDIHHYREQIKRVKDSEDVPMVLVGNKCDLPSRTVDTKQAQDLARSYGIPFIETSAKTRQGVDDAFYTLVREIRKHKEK
Sequence (P62937 whole entry): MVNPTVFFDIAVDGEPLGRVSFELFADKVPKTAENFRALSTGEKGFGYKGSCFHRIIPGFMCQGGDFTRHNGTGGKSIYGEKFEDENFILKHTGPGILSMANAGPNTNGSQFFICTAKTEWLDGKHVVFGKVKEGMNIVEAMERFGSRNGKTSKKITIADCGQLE

Record excerpt, results attached:
CCn1c(-c2cccnc2[C@H](C)OC)c2c3cc(ccc31)-c1cc(O)cc(c1)C[C@H](NC(=O)[C@H](C(C)C)N(C)C(=O)[C@@H]1CC1(C)C)C(=O)N1CCC[C@H](N1)C(=O)OCC(C)(C)C2: 0.1 to 1 µM
C=CC(=O)N1CC(OC[C@H](C(=O)N[C@H]2Cc3cc(F)cc(c3)-c3ccc4c(c3)c(c(-c3cccnc3[C@H](C)OC)n4CC)CC(C)(C)COC(=O)[C@@H]3CCCN(N3)C2=O)C(C)C)C1 (atropisomer, axis not shown): > 10 µM
CCn1c(-c2cnccc2COC)c2c3cc(ccc31)-c1cc(O)cc(c1)C[C@H](NC(=O)[C@H](C(C)C)N(C)C(=O)CN1CCOCC1)C(=O)N1CCC[C@H](N1)C(=O)OCC(C)(C)C2: 1 to 10 µM

Now look at this one.
Task item: Give reported IC50 for CCn1c(-c2cccnc2[C@H](C)OC)c2c3cc(ccc31)-c1csc(n1)C[C@H](NC(=O)[C@H](C(C)C)N(C)C(=O)N1[C@@H](C)CN(C)C[C@@H]1C)C(=O)N1CCC[C@H](N1)C(=O)OCC(C)(C)C2 (KRAS G12D (Homo sapiens, UniProt P01116+P62937, G12D))
Reply: 1 to 10 µM

---

target: KRAS G12C (Homo sapiens, UniProt P01116+P62937, G12C); assay: Disruption of BRAF RBD interaction with Ras (FRET / MOA assay, with Cyclophilin A); type: biochemical; conditions: KRAS G12C; read-out: KRAS G12C FRET data IC50
Sequence (P01116 1-169 isoform P01116-2 G12C): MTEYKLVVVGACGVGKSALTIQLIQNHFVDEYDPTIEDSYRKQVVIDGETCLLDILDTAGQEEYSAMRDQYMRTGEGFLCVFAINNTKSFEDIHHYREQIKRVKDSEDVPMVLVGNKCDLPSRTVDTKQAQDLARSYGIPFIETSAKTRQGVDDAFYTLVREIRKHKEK
Sequence (P62937 whole entry): as the sequence (P62937 whole entry) above
quantity name: IC50

C=CC(=O)N1CCO[C@H]2CN(C(=O)N(C)[C@H](C(=O)N[C@H]3Cc4cccc(n4)-c4ccc5c(c4)c(c(-c4cccnc4[C@H](C)OC)n5CC(F)(F)F)CC(C)(C)COC(=O)C4CCCN(N4)C3=O)C(C)C)C[C@H]21 (some centres unmarked): 10 to 100 nM

Now look at this one.
Task item: Give reported IC50 for C=CC(=O)N1CC[C@H](C(=O)N(C)[C@H](C(=O)N[C@H]2Cc3cc(O)cc(c3)-c3ccc4c(c3)c(c(-c3cccnc3)n4CC)CC(C)(C)COC(=O)[C@@H]3CCCN(N3)C2=O)C(C)C)C1 (KRAS G12C (Homo sapiens, UniProt P01116+P62937, G12C))
Reply: 100 to 1000 nM

---

# IC50 listing for each entry below
tested on: 4EBP1 (Thr37/46) phosphorylation (mTORC1) in MDA-MB-468 cells; experiment: Cell based AlphaLISA assay, mTOR kinase cellular assay: inhibition of p-4E-BP1 (T37/46) in MDA-MB-468 cells; conditions: Homo sapiens, read-out: pIC50 for Inhibition of mTORC1 and mTORC2 Substarte Phosphorylation p-4E-BP1-(T37/46) (converted)

Record excerpt, results attached:
CO[C@H]1C[C@@H]2CC[C@@H](C)[C@@](O)(O2)C(=O)C(=O)N2CCCC[C@H]2C(=O)O[C@H]([C@H](C)C[C@@H]2CC[C@@H](OC(=O)NCCOCCOCCOCCOCCOCCOCCOCCOCC(=O)N3CCc4cc(Cn5nc(-c6ccc7oc(N)nc7c6)c6c(N)ncnc65)ccc4C3)[C@H](OC)C2)CC(=O)[C@H](C)/C=C(\C)[C@@H](O)[C@@H](OC)C(=O)[C@H](C)C[C@H](C)/C=C/C=C/C=C/1C: ≤ 3.16 nM
CO[C@H]1C[C@@H]2CC[C@@H](C)[C@@](O)(O2)C(=O)C(=O)N2CCCC[C@H]2C(=O)O[C@H]([C@H](C)C[C@@H]2CC[C@@H](OC(=O)N3CCc4nc(N5CCN(CCOCCN6CCN(c7ncc(C(=O)N8CCc9cc(Cn%10nc(-c%11ccc%12oc(N)nc%12c%11)c%11c(N)ncnc%11%10)ccc9C8)cn7)CC6)CC5)ncc4C3)[C@H](OC)C2)C[C@@H](OC)[C@H](C)/C=C(\C)[C@@H](O)[C@@H](OC)C(=O)[C@H](C)C[C@H](C)/C=C/C=C/C=C/1C: 3.16 to 31.6 nM
CO[C@H]1C[C@@H]2CC[C@@H](C)[C@@](O)(O2)C(=O)C(=O)N2CCCC[C@H]2C(=O)O[C@H]([C@H](C)C[C@@H]2CC[C@@H](OC(=O)NCc3cnc(N4CCN(CCOCCN5CCN(c6ncc(C(=O)N7CCc8cc(Cn9nc(-c%10cnc%11[nH]ccc%11c%10)c%10c(N)ncnc%109)ccc8C7)cn6)CC5)CC4)nc3)[C@H](OC)C2)CC(=O)[C@H](C)/C=C(\C)[C@@H](O)[C@@H](OC)C(=O)[C@H](C)C[C@H](C)/C=C/C=C/C=C/1C: 3.16 to 31.6 nM
CO[C@H]1C[C@@H]2CC[C@@H](C)[C@@](O)(O2)C(=O)C(=O)N2CCCC[C@H]2C(=O)O[C@H]([C@H](C)C[C@@H]2CC[C@@H](OC(=O)N3CCc4nc(N5CCN(CCOCCOCCOCCOCCOCCC(=O)N6CCc7cc(Cn8nc(-c9cnc%10[nH]ccc%10c9)c9c(N)ncnc98)ccc7C6)CC5)ncc4C3)[C@H](OC)C2)CC(=O)[C@H](C)/C=C(\C)[C@@H](O)[C@@H](OC)C(=O)[C@H](C)C[C@H](C)/C=C/C=C/C=C/1C: > 1000 nM

Now look at this one.
Task item: Kindly indicate its recorded IC50. Item: CO[C@H]1C[C@@H]2CC[C@@H](C)[C@@](O)(O2)C(=O)C(=O)N2CCCC[C@H]2C(=O)O[C@H]([C@H](C)C[C@@H]2CC[C@@H](OC(=O)NCCOCCOCCOCCOCCOCCOCCOCCOCCC(=O)N3CCc4cc(Cn5nc(-c6ccc7oc(N)nc7c6)c6c(N)ncnc65)ccc4C3)[C@H](OC)C2)CC(=O)[C@H](C)/C=C(\C)[C@@H](O)[C@@H](OC)C(=O)[C@H](C)C[C@H](C)/C=C/C=C/C=C/1C
Reply: ≤ 3.16 nM
